Assay: Agonistic activity at kappa opioid receptor of rabbit vas deferens
Please provide measured IC50 for the entries that follow.
API: value field is a number in nM; no unit string.

Give me measured IC50, please, for this compound: CSc1ccc(CC(=O)N2CCN(C(C)=O)CC2CN2CC[C@H](O)C2)cc1 (stereo partly drawn)
37

Give me measured IC50, please, for this compound: CC(=O)N1CCN(C(=O)Cc2ccc(Cl)c(Cl)c2)C(CN2CC[C@H](O)C2)C1 (stereo partly drawn)
0.22

Give me measured IC50, please, for this compound: CC(=O)N1CCN(C(=O)Cc2ccc(C(F)(F)F)cc2)C(CN2CC[C@H](O)C2)C1 (stereo partly drawn)
1.5

====

Test: Agonistic activity at kappa opioid receptor of rabbit vas deferens
Label 1.0 when IC50 is strictly below 10 nM; at or above that, label 0.0.

In plain terms, does CC(=O)N1CCN(C(=O)Cc2ccccc2)C(CN2CC[C@H](O)C2)C1 (some centres undefined) come in under 10 nM for IC50?
0.0

In plain terms, does COc1cccc(CC(=O)N2CCN(C(C)=O)CC2CN2CC[C@H](O)C2)c1 (some centres undefined) come in under 10 nM for IC50?
0.0

In plain terms, does COc1ccc(CC(=O)N2CCN(C(C)=O)CC2CN2CC[C@H](O)C2)cc1 (some centres undefined) come in under 10 nM for IC50?
0.0

In plain terms, does COC(=O)N1CCN(C(=O)Cc2ccc(Cl)c(Cl)c2)[C@@H](CN2CCCC2)C1 come in under 10 nM for IC50?
1.0

In plain terms, does CC(=O)N1CCN(C(=O)Cc2ccc(S(C)(=O)=O)cc2)C(CN2CC[C@H](O)C2)C1 (some centres undefined) come in under 10 nM for IC50?
1.0

In plain terms, does CC(=O)N1CCN(C(=O)Cc2ccc([S+](C)[O-])cc2)C(CN2CC[C@H](O)C2)C1 (some centres undefined) come in under 10 nM for IC50?
0.0

In plain terms, does CC(=O)N1CCN(C(=O)Cc2cccc([N+](=O)[O-])c2)C(CN2CC[C@H](O)C2)C1 (some centres undefined) come in under 10 nM for IC50?
0.0

In plain terms, does CC(=O)N1CCN(C(=O)Cc2cc(F)cc(F)c2)C(CN2CC[C@H](O)C2)C1 (some centres undefined) come in under 10 nM for IC50?
1.0

In plain terms, does CC(=O)N1CCN(C(=O)Cc2ccc([N+](=O)[O-])cc2)C(CN2CC[C@H](O)C2)C1 (some centres undefined) come in under 10 nM for IC50?
1.0
